Where do the numbers come from? From patent US20240270740A1.

Below, each entry is listed with its recorded IC50.
biological target: hcGAS (Homo sapiens, UniProt Q8N884); assay: hcGAS LCMS assay (direct measurement of cGAMP production); format: biochemical; settings: 0.5 nM hcGAS, 100 μM ATP, 100 μM GTP, 25 nM dsDNA, 4 h incubation
Sequence (Q8N884 whole entry): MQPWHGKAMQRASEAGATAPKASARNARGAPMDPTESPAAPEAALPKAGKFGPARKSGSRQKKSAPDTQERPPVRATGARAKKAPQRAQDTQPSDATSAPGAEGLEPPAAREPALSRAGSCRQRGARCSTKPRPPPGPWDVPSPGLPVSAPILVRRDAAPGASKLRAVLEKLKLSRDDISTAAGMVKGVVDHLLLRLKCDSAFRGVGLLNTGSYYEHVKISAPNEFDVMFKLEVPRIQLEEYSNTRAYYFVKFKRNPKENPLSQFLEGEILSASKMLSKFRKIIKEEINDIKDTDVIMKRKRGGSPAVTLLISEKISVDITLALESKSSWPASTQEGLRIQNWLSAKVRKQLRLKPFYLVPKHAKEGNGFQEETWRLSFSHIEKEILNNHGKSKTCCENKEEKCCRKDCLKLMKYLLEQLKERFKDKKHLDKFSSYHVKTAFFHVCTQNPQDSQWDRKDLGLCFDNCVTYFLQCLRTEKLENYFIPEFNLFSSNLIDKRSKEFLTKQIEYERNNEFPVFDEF

compound | result
COCC(COC)Nc1cc(C(=O)Nc2nnc(-n3nccc3CO)s2)oc(=O)c1OC [Compound 143] | 20 to 60 nM
COc1c(N[C@H]2CCS(=O)(=O)C2)cc(C(=O)Nc2nnc(-n3nccc3C)s2)oc1=O [Compound 62] | 5 to 20 nM
COCC1(Nc2cc(C(=O)Nc3nnc(-n4nccc4C)s3)oc(=O)c2OC)CCC1 [Compound 196] | 5 to 20 nM
Cc1ccnn1-c1nnc(NC(=O)c2cc3c(c(=O)o2)OCCN3[C@@H]2CCC[C@@H]2C#N)s1 [Compound 223] | 5 to 20 nM
COc1c(N[C@@H]2CCCC[C@@H]2OC)cc(C(=O)Nc2nnc(-n3nccc3C)s2)oc1=O [Compound 52] | 5 to 20 nM
COc1c(N[C@H]2CCC[C@H]2OC)cc(C(=O)Nc2nnc(-n3nccc3C)s2)oc1=O (single isomer, unassigned) [214*] | 5 to 20 nM
COc1c(NCCO[C@@H]2CCOC2)cc(C(=O)Nc2nnc(-n3nccc3C)s2)oc1=O [Compound 169] | ≥ 200 nM
COCC(COC)Nc1cc(C(=O)Nc2nnc(-c3c(Cl)ccn3C)s2)oc(=O)c1OC [Compound 84] | < 5 nM
COC[C@@H](Nc1cc(C(=O)Nc2nnc(-n3nccc3C)s2)oc(=O)c1OC)c1ccccc1 [Compound 49] | 20 to 60 nM
COc1c(N[C@H](C)[C@H](C)OC)cc(C(=O)Nc2nnc(-n3nccc3C)s2)oc1=O [Compound 166] | < 5 nM

// sample COc1c(N[C@@H]2CCC[C@@H]2OCC(F)F)cc(C(=O)Nc2nnc(-n3nccc3C)s2)oc1=O [Compound 171] , its IC50 was 5 to 20 nM

Short answer for COc1c(N(C)[C@@H]2CCC[C@@H]2O)cc(C(=O)Nc2nnc(-n3nccc3C)s2)oc1=O (racemic) [Rac-159] : IC50 was 5 to 20 nM

Briefly, IC50 measured for COC[C@H](C1CC1)N1CCOc2c1cc(C(=O)Nc1nnc(-n3nccc3C)s1)oc2=O [Compound 226] : < 5 nM

response.value for COc1c(N[C@H]2CC[C@H](O)C2)cc(C(=O)Nc2nnc(-n3nccc3C)s2)oc1=O (racemic) [Rac-6] (field: IC50) = 5 to 20 nM

response.value for COCC(C)(C)COc1c(NC23CC(C2)C3)cc(C(=O)Nc2nnc(-n3nccc3C)s2)oc1=O [Compound 149] (field: IC50) = 5 to 20 nM

Input COCC1(Nc2cc(C(=O)Nc3nnc(-n4nccc4C)s3)oc(=O)c2OC)CC1 [Compound 97] . Output IC50: 5 to 20 nM

Data point: COCC1(Nc2cc(C(=O)Nc3nnc(-n4nccc4C)s3)oc(=O)c2OC)CCCC1 [Compound 152] ; IC50 = 5 to 20 nM

Reported IC50 of COC[C@H](Nc1cc(C(=O)Nc2nnc(-n3nccc3C)s2)oc(=O)c1OC)c1ccccc1 [Compound 114] : < 5 nM

Value of IC50 reported for the compound COC[C@@H](c1ccccc1)N1CCOc2c1cc(C(=O)Nc1nnc(-n3nccc3C)s1)oc2=O [Compound 227] is < 5 nM

Note to self: IC50 recorded for COc1c(N[C@H]2CCC[C@H]2O)cc(C(=O)Nc2nnc(-n3nccc3C)s2)oc1=O [Compound 5] was 5 to 20 nM

// COc1c(NCCO)cc(C(=O)Nc2nnc(-c3c(Cl)ccn3C)s2)oc1=O [Compound 129] : IC50 value = 5 to 20 nM

Per the records, this compound ( COC[C@H](Nc1cc(C(=O)Nc2nnc(-c3c(Cl)ccn3C)s2)oc(=O)c1OC)c1ccccc1 [Compound 213] ) has IC50 equal to < 5 nM

// IC50 value for COc1c(N2CC[C@H](S(C)(=O)=O)C2)cc(C(=O)Nc2nnc(-n3nccc3C)s2)oc1=O [Compound 60] : 5 to 20 nM
